For each entry below, report its GI50 value.
System: HOP-92
Experiment summary: NCI tumour cell line growth inhibition, 48 h
The source made the active and inactive calls. No stated cut-off is given here; in the data, active = GI50 up to about 1.1 µM and inactive = higher.

Item: CC(NNC(=O)c1cc[n+]([BH2-]C#N)cc1)c1ccc(Cl)cc1Cl (centres undefined) Test system: HOP-92 Read-out: GI50 Value: ?
37.4 µM (inactive)

Entry to check: "C/C(=N\n1c(Cc2ccccc2)n[nH]c1=O)c1ccccc1"
26.8 µM (inactive)

Entry to check: "O=S(=O)(O)c1cc(/N=N/c2c(O)ccc3ccccc23)cc2c(S(=O)(=O)O)cccc12"
> 100 µM (inactive)

Entry to check: CCCNC(C#N)c1ccc(C(C#N)NCCC)cc1 (centres undefined)
45.4 µM (inactive)

Entry to check: "O=C(CCCN1CCC(O)(c2ccc(Cl)cc2)CC1)c1ccc(F)cc1"
48.2 µM (inactive)

Entry to check: CC(=O)[C@H]1CC[C@@H]2[C@]1(C)CC=C1[C@]23C=C[C@]2(C[C@@H](O)CC[C@]12C)C(C(=O)O)C3C(=O)O (some centres undefined)
> 100 µM (inactive)

Entry to check: "O=C(CCOS(=O)(=O)CF)N1CCN(C(=O)CCOS(=O)(=O)CF)CC1"
35.6 µM (inactive)

Entry to check: CCCCOC(C)(C)/C=C/C(O)[C@](C)(O)[C@H]1[C@H](O)C[C@@]2(C)[C@@H]3CCc4c(cc(OC5OC(CO)C(O)C(O)C5O)c(O)c4C)C3(C)C(=O)C[C@]12C (some centres undefined)
> 100 µM (inactive)

Entry to check: N#CC(C(=O)O)C(c1c(Cl)cccc1Cl)C(C#N)C(=O)O (centres undefined)
> 100 µM (inactive)

====

Tested on: NCI-H23
Experiment summary: NCI tumour cell line growth inhibition, 48 h
Activity calls are given as the source filed them. No stated cut-off is given here; in the data, active = GI50 up to about 1.1 µM and inactive = higher.
For each entry below, report its GI50 value.

For the compound "Oc1nc(-c2ccc3ccccc3c2)nc2ccccc12" , what GI50 is on record?
58.5 µM (inactive)

Entry to check: "O=S(=O)(Oc1ccc2ccccc2c1-c1c(OS(=O)(=O)C(F)(F)F)ccc2ccccc12)C(F)(F)F"
75.2 µM (inactive)

Entry to check: "CCOC(=O)c1sc2nc(SC)nc3c2c1NC(=O)CN3c1cccc(F)c1"
27 µM (inactive)

Entry to check: CC(=O)O[C@H]1CCC2[C@@H]3CCC4=C(O)C(=O)C(C#N)C[C@]4(C)C3CC[C@@]21C (stereo not given in full)
29.1 µM (inactive)

Entry to check: "CN(C)N1C(=O)S/C(=C\c2ccc([N+](=O)[O-])cc2)C1=O"
> 100 µM (inactive)

Entry to check: "O=S(=O)(O)c1ccc2c(/N=N/c3cccc4ccccc34)c(O)c(S(=O)(=O)O)cc2c1"
> 100 µM (inactive)

Entry to check: CC(C)=CCc1c(O)c(CC2=C(O)C(CC=C(C)C)(C(=O)C(C)C)C(O)=C(C)C2=O)c(O)c(C(=O)C(C)C)c1O (stereo not given)
8.43 µM (inactive)

Entry to check: "COc1ccc(C(SCCO)(c2ccccc2)c2ccc(OC)cc2)cc1"
18.7 µM (inactive)

Entry to check: "COc1ccc2c(=O)oc3c(OC)cc(CCN(C)C)c4c(=O)oc1c2c34"
9.27 µM (inactive)

Entry to check: CN1CCOC1c1ccccc1O (stereo not given)
> 100 µM (inactive)

====

Tested on: UACC-62
Experiment summary: NCI tumour cell line growth inhibition, 48 h
Active and inactive are the calls of the source. Rule as the data show it: active = GI50 up to about 1.1 µM and inactive = higher.
Could you please pick one outcome from this set? active, inactive

Check the results log: what was the call for "c1ccc(-c2ccc(-c3ccc(C4=NCCN4)cc3)o2)cc1" ?
inactive

Entry to check: O=C1c2ccccc2C(O)(C(=O)O)C1(O)CC=C(Cl)Cl (stereo not given)
inactive

Entry to check: CCOC(=O)C1=[N+]([O-])OC2=C(O)CCCC21 (stereo not given)
inactive

Entry to check: CC1(C)CCC2=C(O1)c1ccccc1C(=O)C2=O [LAPACHONE]
active

Entry to check: CCCCCCCCCCCCCCCCCCNc1ccn(C2OC(COP(=O)(O)OCC3OC(n4ccc(N)nc4=O)C(O)C3O)C(O)C2O)c(=O)n1 (stereo not given)
inactive

Entry to check: O=C1C(Cl)C(c2ccccc2Cl)N1n1cnc2ccccc2c1=O (stereo not given)
inactive

Entry to check: "O=C(/C=C/c1ccccc1)NNC(=O)c1c(Cl)c(Cl)c(Cl)c(Cl)c1-c1nc2ccccc2[nH]1"
inactive

Entry to check: CCC1(O)CC(O)c2c(O)c3c(c(O)c2C1C(=O)OC)C(=O)c1cccc(O)c1C3=O (stereo not given)
inactive

Entry to check: "COc1cc(OC)cc(Oc2nc3ccc(C(F)(F)F)cc3nc2-c2ccccc2)c1"
inactive

Entry to check: "O=C(N/C(=C\c1ccc(Br)cc1)c1nc2ccccc2[nH]1)c1ccccc1"
inactive

====

Tested on: DLD-1
Experiment summary: NCI tumour cell line growth inhibition, 48 h
The source made the active and inactive calls. Cut-off read from the data, not from the text of the source: active = GI50 up to about 1.1 µM and inactive = higher.
Measured parameter: GI50

For the compound "CC(=O)NNc1nc(C)c(C(/C=C/c2ccc(Cl)cc2)=N\NS(=O)(=O)c2ccc(C)cc2)s1" , what GI50 is on record?
> 100 µM (inactive)

Entry to check: "COC(=O)N/N=C/C(=C/Nc1ccccc1)[N+](=O)[O-]"
> 100 µM (inactive)

Entry to check: O=C(O)C(Cc1cccs1)NC(=O)C(F)(F)F (stereo unspecified)
> 100 µM (inactive)

Entry to check: COc1ccc(C(c2ccc(C(C)C)cc(=O)c2O)c2ccc3cccnc3c2O)cc1 (stereo unspecified)
0.45 µM (active)

Entry to check: "CS(=O)(=O)OCCCNCCCOS(C)(=O)=O"
2810 µM (inactive)

Entry to check: CC(C)CCCC(C)[C@H]1CCC(C2C[C@@H](O)[C@@H]3CC(O)[C@@H](O)C[C@]3(CO)C2=O)[C@]1(C)CCO (stereo partly specified)
31.7 µM (inactive)

Entry to check: "COC(=O)c1sc(=O)n(-c2ccccc2)c1SCc1ccccc1"
> 100 µM (inactive)

Entry to check: "CN(C)CC/C(=N\Nc1ccc(Cl)c(Cl)c1)c1ccccc1"
3.39 µM (inactive)

Entry to check: "CCCCCCCCCCCCOCCCOP(=O)([O-])OCC[N+](C)(C)C"
27.9 µM (inactive)

Entry to check: "Sc1ccccc1S"
> 100 µM (inactive)

Entry to check: COc1ccc(N2C(=O)[C@@H]3[C@H](C2=O)c2[nH]c4ccccc4c2C2CCC(C(C)(C)C)C[C@@H]23)cc1 (stereo partly specified)
37.7 µM (inactive)

Entry to check: "N#C/C(=C\c1cccc(O)c1)C(N)=O"
> 100 µM (inactive)

Entry to check: "N=C(N)NS(=O)(=O)c1ccc(NCc2c3ccccc3nc3ccccc23)cc1"
23.5 µM (inactive)

Entry to check: "Cc1c(CCO)c(O)n2c(nc3ccccc32)c1C#N"
> 100 µM (inactive)

Entry to check: "COc1cc(C(=C2SCCS2)c2nccc3cc(OC)c(OC)cc23)c([N+](=O)[O-])cc1OC"
> 100 µM (inactive)

Entry to check: "CC(C)=CC(=O)N1CCN(C(=O)C=C(C)C)CC1"
> 100 µM (inactive)

Entry to check: COC(=O)C1=Cc2c(OC)cc(OC)c(OC)c2[C@H](c2cc(OC)c(OC)cc2OC)C1C(=O)OC (stereo partly specified)
> 100 µM (inactive)

Entry to check: COC(=O)[C@]1(C)CCC[C@@]2(C)C1CCC1=CC3(C(C)C)CCC12OO3 (stereo partly specified)
50.1 µM (inactive)

Entry to check: "Cc1ccccc1C1=[N+]([O-])c2ccc(Cl)cc2C1=O"
7.41 µM (inactive)

Entry to check: CC(C)c1oc(=O)cc2c1C(O)C1OC(=O)C3(C)C(O)C4OC4C2(C)C13 (stereo unspecified)
1.23 µM (inactive)

Entry to check: "COc1cc(CN[C@H]2CCc3cc(OC)c(OC)c(OC)c3-c3ccc(SC)c(=O)cc32)cc(OC)c1"
0.0411 µM (active)

====

Tested on: OVCAR-5
Experiment summary: NCI tumour cell line growth inhibition, 48 h
Activity calls are given as the source filed them. Cut-off read from the data, not from the text of the source: active = GI50 up to about 1.1 µM and inactive = higher.
Measured parameter: GI50

For the molecule CC(NC(=O)C(N)CC(=O)O)NC(=O)N1CCOCC1 (stereo unspecified) , what GI50 is on record?
> 100 µM (inactive)

Entry to check: CC(C)(CO)N1C(=O)c2ccccc2C1(O)c1ccc(Cl)cc1 (stereo unspecified)
> 100 µM (inactive)

Entry to check: C/C=C(/C)C(=O)OC1CC(C)[C@H]2CC(=O)C(C)=C2CC1C(C)(C)OC(C)=O (stereo partly specified)
> 100 µM (inactive)

Entry to check: NC1C(O)C(O)C(CO)OC1n1cc(F)c(=O)[nH]c1=O (stereo unspecified)
> 100 µM (inactive)

Entry to check: "COc1ccc(C2=C(N)c3c(Cl)cccc3C2=O)cc1"
> 100 µM (inactive)

Entry to check: "Cc1ccccc1NC(=O)c1nc(S)nc(N)c1-c1ccccc1C"
> 100 µM (inactive)

Entry to check: "Oc1c(N2CCOCC2)cc(-c2cc(N3CCOCC3)c(O)c3ccccc23)c2ccccc12"
2.86 µM (inactive)

Entry to check: O=C1c2ccccc2C(O)(C(=O)O)C1(O)CC=C(Cl)Cl (stereo unspecified)
> 125 µM (inactive)

Entry to check: "O=S(=O)(O)c1ccc2c(/N=N/c3cccc4ccccc34)c(O)c(S(=O)(=O)O)cc2c1"
> 100 µM (inactive)

Entry to check: CN(C)CC1(C)CC/C(=C\c2ccccc2)C1=O (stereo unspecified)
> 100 µM (inactive)

Entry to check: CC1(C)C=CC(=O)C(O)C(C)(C)C1=O (stereo unspecified)
> 100 µM (inactive)

FYI, the data here is from ChEMBL document CHEMBL1201862.
